Test system: Rat Aorta
assay-comment: Test with Excised Aorta of Rat: relaxation of lasting KCl-induced contraction
Design: species or system male Sprague Dawley rat
condition-label: rat thoracic aorta rings, 30 mM KCl contraction, Krebs-Henseleit, 37° C., tension 2 g; read-out: IC50 (50% inhibitory concentration, relaxation of lasting contraction following KCl addition), Rat Aorta
pIC50: −log10 of the molar value.
Is pIC50 at least 8? Then satisfied. If not, not satisfied.

Consider the following illustrative entries.
{"columns": ["molecule", "classification"],
 "data": [
  ["N#CCCNC(=O)C1=CC(CF)(CF)Oc2ccc([N+](=O)[O-])cc21 [Example 10]", "satisfied"],
  ["CNC(=S)C1=CC(CF)(CF)Oc2ccc([N+](=O)[O-])cc21 [Example 8]", "satisfied"],
  ["CN=C(NC#N)C1=CC(C)(COC)Oc2ccc([N+](=O)[O-])cc21 (centres unmarked) [Example 3]", "not satisfied"],
  ["CNC(=O)C1=CC(C)(COC)Oc2ccc([N+](=O)[O-])cc21 (centres unmarked) [1(2)]", "not satisfied"]
]}

Prompt: Confirm if pIC50 reported for the molecule CC1(C)Oc2ccc(C#N)cc2[C@@H](N2CCCC2=O)[C@@H]1O (relative stereo) [Cromakalim, reference compound] is 8 or above.
Response: not satisfied
